Just for reference, patent US10370405B2 is where these values come from.

Item-by-item account of AUC(0-t)
# assay-notes: Single dose oral pharmacokinetic study
# Assay type: in vivo
# run-conditions: mouse, plasma; Mice oral PK @30 mg/kg

- compound: "CC(C)C1=C2[C@H]3CC[C@@H]4[C@@]5(C)CC[C@H](OC(=O)[C@H]6C[C@@H](C(=O)O)C6(C)C)C(C)(C)[C@@H]5CC[C@@]4(C)[C@]3(C)CC[C@@]2(C(=O)N2CCC[C@H]2c2ncc(-c3cccnc3)[nH]2)CC1=O"
  AUC(0-t) [ng·h/mL]: 48600
- compound: "CC(C)C1=C2[C@H]3CC[C@@H]4[C@@]5(C)CC[C@H](OC(=O)[C@H]6C[C@@H](C(=O)O)C6(C)C)C(C)(C)[C@@H]5CC[C@@]4(C)[C@]3(C)CC[C@@]2(C(=O)N(CCN(C)C)Cc2ccc(Cl)cc2)CC1=O"
  AUC(0-t) [ng·h/mL]: 166000
- compound: "CC(C)C1=C2[C@H]3CC[C@@H]4[C@@]5(C)CC[C@H](OC(=O)[C@H]6C[C@@H](C(=O)O)C6(C)C)C(C)(C)[C@@H]5CC[C@@]4(C)[C@]3(C)CC[C@@]2(C(=O)N2CCCC2c2ncc(-c3ccccc3)[nH]2)CC1=O (stereo partly shown)"
  AUC(0-t) [ng·h/mL]: 69800
- compound: "CC(C)C1=C2[C@H]3CC[C@@H]4[C@@]5(C)CC[C@H](OC(=O)[C@H]6C[C@@H](C(=O)O)C6(C)C)C(C)(C)[C@@H]5CC[C@@]4(C)[C@]3(C)CC[C@@]2(C(=O)NC(C)(C)CO)CC1=O"
  AUC(0-t) [ng·h/mL]: 88700

---

# assay-notes: Single dose oral pharmacokinetic study
# Assay type: in vivo
# run-conditions: mouse, plasma; Mice oral PK @30 mg/kg
Threshold 100 µg·h/mL. AUC(0-t) below it: 1. AUC(0-t) at it or above: 0.

- compound-smiles: "CC(C)C1=C2[C@H]3CC[C@@H]4[C@@]5(C)CC[C@H](OC(=O)[C@H]6C[C@@H](C(=O)O)C6(C)C)C(C)(C)[C@@H]5CC[C@@]4(C)[C@]3(C)CC[C@@]2(C(=O)N2CCC[C@H]2CN2CCC(F)(F)CC2)CC1=O"
  label-class: 1
- compound-smiles: "CC(C)C1=C2[C@H]3CC[C@@H]4[C@@]5(C)CC[C@H](OC(=O)[C@H]6C[C@@H](C(=O)O)C6(C)C)C(C)(C)[C@@H]5CC[C@@]4(C)[C@]3(C)CC[C@@]2(C(=O)N2CCC[C@H]2c2ncc(-c3ccc(F)cc3)[nH]2)CC1=O"
  label-class: 0
- compound-smiles: "CC(C)C1=C2[C@H]3CC[C@@H]4[C@@]5(C)CC[C@H](OC(=O)[C@H]6C[C@@H](C(=O)O)C6(C)C)C(C)(C)[C@@H]5CC[C@@]4(C)[C@]3(C)CC[C@@]2(C(=O)N2CCC[C@H]2CN2CCC(F)(F)C2)CC1=O"
  label-class: 1
- compound-smiles: "CC(C)C1=C2[C@H]3CC[C@@H]4[C@@]5(C)CC[C@H](OC(=O)[C@H]6C[C@@H](C(=O)O)C6(C)C)C(C)(C)[C@@H]5CC[C@@]4(C)[C@]3(C)CC[C@@]2(C(=O)NC(C)(C)c2ncc(-c3ccccc3)[nH]2)CC1=O"
  label-class: 0
- compound-smiles: "CC(C)C1=C2[C@H]3CC[C@@H]4[C@@]5(C)CC[C@H](OC(=O)[C@H]6C[C@@H](C(=O)O)C6(C)C)C(C)(C)[C@@H]5CC[C@@]4(C)[C@]3(C)CC[C@@]2(C(=O)NC(C)(C)c2ncc(-c3ccc(Cl)cc3)[nH]2)CC1=O"
  label-class: 0
- compound-smiles: "CC(C)C1=C2[C@H]3CC[C@@H]4[C@@]5(C)CC[C@H](OC(=O)[C@H]6C[C@@H](C(=O)O)C6(C)C)C(C)(C)[C@@H]5CC[C@@]4(C)[C@]3(C)CC[C@@]2(C(=O)NC(C)(C)CN2CCCC2)CC1=O"
  label-class: 1
- compound-smiles: "CC(C)C1=C2[C@H]3CC[C@@H]4[C@@]5(C)CC[C@H](OC(=O)[C@H]6C[C@@H](C(=O)O)C6(C)C)C(C)(C)[C@@H]5CC[C@@]4(C)[C@]3(C)CC[C@@]2(C(=O)N2CCC[C@H]2CN2CCCC2)CC1=O"
  label-class: 0
- compound-smiles: "CC(C)C1=C2[C@H]3CC[C@@H]4[C@@]5(C)CC[C@H](OC(=O)[C@H]6C[C@@H](C(=O)O)C6(C)C)C(C)(C)[C@@H]5CC[C@@]4(C)[C@]3(C)CC[C@@]2(C(=O)N2CCC[C@H]2C(C)(C)O)CC1=O"
  label-class: 0

---

# assay-notes: in vitro

- compound-smiles: "CC(C)C1=C2[C@H]3CC[C@@H]4[C@@]5(C)CC[C@H](OC(=O)[C@H]6C[C@@H](C(=O)O)C6(C)C)C(C)(C)[C@@H]5CC[C@@]4(C)[C@]3(C)CC[C@@]2(C(=O)N2CCC[C@H]2CN2CCC(F)(F)CC2)CC1=O"
  unit-abbrev: "%"
  viability at 4 days, 30 μM: 9
- compound-smiles: "CC(C)C1=C2[C@H]3CC[C@@H]4[C@@]5(C)CC[C@H](OC(=O)[C@H]6C[C@@H](C(=O)O)C6(C)C)C(C)(C)[C@@H]5CC[C@@]4(C)[C@]3(C)CC[C@@]2(C(=O)NC(C)(C)CN2CCCC2)CC1=O"
  unit-abbrev: "%"
  viability at 4 days, 30 μM: 100
- compound-smiles: "CC(C)C1=C2[C@H]3CC[C@@H]4[C@@]5(C)CC[C@H](OC(=O)[C@H]6C[C@@H](C(=O)O)C6(C)C)C(C)(C)[C@@H]5CC[C@@]4(C)[C@]3(C)CC[C@@]2(C(=O)NC(C)(C)CO)CC1=O"
  unit-abbrev: "%"
  viability at 4 days, 30 μM: 22
- compound-smiles: "CC(C)C1=C2[C@H]3CC[C@@H]4[C@@]5(C)CC[C@H](OC(=O)[C@H]6C[C@@H](C(=O)O)C6(C)C)C(C)(C)[C@@H]5CC[C@@]4(C)[C@]3(C)CC[C@@]2(C(=O)N(CCN(C)C)Cc2ccc(Cl)cc2)CC1=O"
  unit-abbrev: "%"
  viability at 4 days, 30 μM: 12
- compound-smiles: "CC(C)C1=C2[C@H]3CC[C@@H]4[C@@]5(C)CC[C@H](OC(=O)[C@H]6C[C@@H](C(=O)O)C6(C)C)C(C)(C)[C@@H]5CC[C@@]4(C)[C@]3(C)CC[C@@]2(C(=O)N2CCC[C@H]2CN2CCC(F)CC2)CC1=O"
  unit-abbrev: "%"
  viability at 4 days, 30 μM: 4
- compound-smiles: "CC(C)C1=C2[C@H]3CC[C@@H]4[C@@]5(C)CC[C@H](OC(=O)[C@H]6C[C@@H](C(=O)O)C6(C)C)C(C)(C)[C@@H]5CC[C@@]4(C)[C@]3(C)CC[C@@]2(C(=O)N2CCC[C@H]2CN2CCC[C@H]2CO)CC1=O"
  unit-abbrev: "%"
  viability at 4 days, 30 μM: 70

---

# assay-notes: in vitro
Item-by-item account of viability at 4 days, 10 μM

- compound: "CC(C)C1=C2[C@H]3CC[C@@H]4[C@@]5(C)CC[C@H](OC(=O)[C@H]6C[C@@H](C(=O)O)C6(C)C)C(C)(C)[C@@H]5CC[C@@]4(C)[C@]3(C)CC[C@@]2(C(=O)N2CCCC2c2ncc(-c3ccccc3)[nH]2)CC1=O (stereo partly drawn)"
  viability at 4 days, 10 μM, %: 80
- compound: "CC(C)C1=C2[C@H]3CC[C@@H]4[C@@]5(C)CC[C@H](OC(=O)[C@H]6C[C@@H](C(=O)O)C6(C)C)C(C)(C)[C@@H]5CC[C@@]4(C)[C@]3(C)CC[C@@]2(C(=O)NC(C)(C)CN2CCCC2)CC1=O"
  viability at 4 days, 10 μM, %: 100
- compound: "CC(C)C1=C2[C@H]3CC[C@@H]4[C@@]5(C)CC[C@H](OC(=O)[C@H]6C[C@@H](C(=O)O)C6(C)C)C(C)(C)[C@@H]5CC[C@@]4(C)[C@]3(C)CC[C@@]2(C(=O)N2CCC[C@H]2CN2CCCC2)CC1=O"
  viability at 4 days, 10 μM, %: 69
- compound: "CC(C)C1=C2[C@H]3CC[C@@H]4[C@@]5(C)CC[C@H](OC(=O)[C@H]6C[C@@H](C(=O)O)C6(C)C)C(C)(C)[C@@H]5CC[C@@]4(C)[C@]3(C)CC[C@@]2(C(=O)N2CCC[C@H]2c2ncc(-c3cccnc3)[nH]2)CC1=O"
  viability at 4 days, 10 μM, %: 98
- compound: "CC(C)C1=C2[C@H]3CC[C@@H]4[C@@]5(C)CC[C@H](OC(=O)[C@H]6C[C@@H](C(=O)O)C6(C)C)C(C)(C)[C@@H]5CC[C@@]4(C)[C@]3(C)CC[C@@]2(C(=O)NC(C)(C)c2ncc(-c3ccccc3)[nH]2)CC1=O"
  viability at 4 days, 10 μM, %: 29
- compound: "CC(C)C1=C2[C@H]3CC[C@@H]4[C@@]5(C)CC[C@H](OC(=O)[C@H]6C[C@@H](C(=O)O)C6(C)C)C(C)(C)[C@@H]5CC[C@@]4(C)[C@]3(C)CC[C@@]2(C(=O)N2CCC[C@H]2CN2CCC(F)(F)C2)CC1=O"
  viability at 4 days, 10 μM, %: 57
